B1: H2-Kb / Ed45 (parent complex)
chain 1: GEQVEQRPPHLSVREGDSAVIICTYTDPNSYYFFWYKQEPGAGLQLLMKVFSSTEINEGQGFTVLLNKKDKQLSLNLTAAHPGDSAVYFCAVSGTNAYKVIFGKGTHLHVLP
chain 2: EAAVTQSPRSKVAVTGGKVTLSCHQTNNHDYMYWYRQDTGHGLRLIHYSYVADSTEKGDIPDGYKASRPSQENFSLILELASLSQTAVYFCASARGFQDTQYFGPGTRLLVL
chain 3: not shown
chain 4: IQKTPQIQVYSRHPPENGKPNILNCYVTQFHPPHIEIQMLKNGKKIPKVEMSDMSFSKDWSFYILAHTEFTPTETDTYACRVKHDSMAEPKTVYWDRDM
chain 5: SIINFEKL

Variants of: B1
Test: % of reporter cells activated (NFAT-GFP), raw; note: test concentration or dose not given here
Result type: ratio to parent

Variant	Result type	Test result
chain 5 F5E	ratio to parent	1.34
chain 5 L8R	ratio to parent	1.77
chain 5 L8S	ratio to parent	1.53
chain 5 S1I	ratio to parent	0.0549
chain 5 N4I	ratio to parent	1.11
chain 5 L8K	ratio to parent	1.87
chain 5 N4A	ratio to parent	0.0797
chain 5 K7Q	ratio to parent	0.193
chain 5 I2S	ratio to parent	1.32
chain 5 I3E	ratio to parent	2.17
chain 5 L8A	ratio to parent	1.77
chain 5 N4Q	ratio to parent	0.0624
chain 5 L8I	ratio to parent	1.62
chain 5 I2M	ratio to parent	2.11
chain 5 S1E	ratio to parent	0.177
